Assay: in vitro
Conditions: human, hela cells, % viability
So I've got a bunch of compounds here, and I need their viability at 28.5 h, 10 µM values.
Give bare numbers, in %.

// worked examples, viability at 28.5 h, 10 µM included
COc1ccc(CC(=O)N2CCC(Cc3ccccc3-c3ccccc3)(C(N)=O)CC2)cc1    91.8
COc1ccc([C@H]2CN(C(=O)c3ccccc3)[C@@H]3CCN(Cc4ccccc4C)C[C@H]23)cc1    105
CCn1cc(CN2CCC(Oc3cc(C)ccc3F)(C(=O)O)CC2)cn1    96.1

Here is another compound to look at.
Need viability at 28.5 h, 10 µM, item COc1cc([C@@]23CC[C@@H](NC(=O)Nc4cccc(C(F)(F)F)c4F)C[C@@H]2N(C)CC3)ccc1C#N
106
